Listing of entries alongside the reported GI50.
System: HL-60
Experiment: NCI tumour cell line growth inhibition, 48 h
Activity calls are given as the source filed them. No stated cut-off is given here; in the data, active = GI50 up to about 1.1 µM and inactive = higher.
measured.quantity: GI50

                                   compound       value_measured
0  CC(=O)Nc1ccc(/C=C/c2ccc(NC(=O)Nc3ccc(/C=C/c4ccc(NC(C)=O)cc4S(=O)(=O)O)c(S(=O)(=O)O)c3)cc2S(=O)(=O)O)c(S(=O)(=O)O)c1   60.1 µM (inactive)
1  CCOC(=O)C1=C(Nc2ccc(Cl)c(Cl)c2)OC/C1=N\NC(=O)Cc1ccccc1  > 100 µM (inactive)
2      CC(C)(C)c1cc(C(C)(C)C)c2sc(=S)oc2c1O   7.45 µM (inactive)
3  CCOC(=O)CN1C(=O)c2c(NC(=O)C(=O)O)cccc2S1(=O)=O  > 100 µM (inactive)
4  N#CC12C(=O)N3C(=NC(c4ccco4)NC3c3ccco3)C1(C#N)C(c1ccco1)NC1=C2CCCC1 (stereo not given)  > 100 µM (inactive)
5  O=C(/C=C/c1ccc(O)cc1)c1ccc(O)cc1 [4,4'-DIHYDROXYCHALCONE]     17 µM (inactive)
6              On1c(-c2ccccc2)nc2ccccc2c1=S    2.4 µM (inactive)
7                         Cc1nnc(N)s/c1=N/O  > 100 µM (inactive)
8          Cc1ccc2c(=O)cc(Cc3cccs3)[nH]c2n1  > 100 µM (inactive)
9  COc1ccc(Cn2c3c(cc(OS(=O)(=O)C(F)(F)F)c2=O)Cc2ccccc2-3)cc1   10.7 µM (inactive)
